details: 303.15 K; 101.33 kPa
Quick rule for you: viscosity at 2 mPa·s or higher means yes (1), lower means no (0).

// query State whether the measured viscosity reaches 2 mPa·s, counting equality as reaching it, for `CNC=O`
// result no (0)

// query State whether the measured viscosity reaches 2 mPa·s, counting equality as reaching it, for `c1ccc2c(c1)CCCC2`
// result no (0)

// query State whether the measured viscosity reaches 2 mPa·s, counting equality as reaching it, for `CCCCNCCO`
// result yes (1)

// query State whether the measured viscosity reaches 2 mPa·s, counting equality as reaching it, for `CCNCCO`
// result yes (1)

// query State whether the measured viscosity reaches 2 mPa·s, counting equality as reaching it, for `CCCCOCCO`
// result yes (1)

----------
settings: 298.15 K; 101.33 kPa
readout-kind: viscosity (mPa·s)
Entry rule: numbers only, all in mPa·s.

// query So what does the record say about viscosity for `CCNCCO` ?
// result 12.75

// query So what does the record say about viscosity for `c1ccc2c(c1)CCCC2` ?
// result 1.968

// query So what does the record say about viscosity for `CCCCNCCO` ?
// result 15.39

// query So what does the record say about viscosity for `CC(C)OCCO` ?
// result 2.106

// query So what does the record say about viscosity for `CCOCCOCCOCC` ?
// result 1.268

// query So what does the record say about viscosity for `CCCCOCCO` ?
// result 2.844

----------
conditions: 318.15 K; 101.33 kPa
readout-kind: viscosity (mPa·s)
Entry rule: numbers only, all in mPa·s.

// query So what does the record say about viscosity for `CCCCNCCO` ?
// result 6.68

// query So what does the record say about viscosity for `CCCCOCCO` ?
// result 1.764

// query So what does the record say about viscosity for `CCNCCO` ?
// result 5.608

// query So what does the record say about viscosity for `CCOCCOCCOCC` ?
// result 0.881

// query So what does the record say about viscosity for `CC(C)OCCO` ?
// result 1.315

// query So what does the record say about viscosity for `COC(=O)c1ccccc1` ?
// result 1.253

// query So what does the record say about viscosity for `CNC=O` ?
// result 1.256

----------
conditions: 298.15 K; 100 kPa
readout-kind: viscosity (mPa·s)
Entry rule: numbers only, all in mPa·s.

// query So what does the record say about viscosity for `CCCCOCCO` ?
// result 2.855

// query So what does the record say about viscosity for `C=CC(=O)OC(C)(C)C` ?
// result 0.8309

// query So what does the record say about viscosity for `CCCC[n+]1ccn(C)c1.N#C[C-](C#N)C#N` ?
// result 27.97

// query So what does the record say about viscosity for `C[N+](C)(C)C.[OH-]` ?
// result 2.77

// query So what does the record say about viscosity for `CCCCCC[N+]1(C)CCCC1.O=S(=O)([N-]S(=O)(=O)C(F)(F)F)C(F)(F)F` ?
// result 102.8

// query So what does the record say about viscosity for `CCCCCCCCCCCC[P+](CCCC)(CCCC)CCCC.N#Cc1ccc[n-]1` ?
// result 389

// query So what does the record say about viscosity for `CC[N+]1(C)CCCC1.COP(=O)([O-])OC` ?
// result 169.4

----------
Exercise: state measured viscosity for each of the molecules provided.
conditions: 303.15 K; 100 kPa
Entry rule: numbers only, all in mPa·s.

// query So what does the record say about viscosity for `C=CC(=O)OC(C)(C)C` ?
// result 0.76

// query So what does the record say about viscosity for `CC[N+]1(C)CCCC1.COP(=O)([O-])OC` ?
// result 123.5

// query So what does the record say about viscosity for `CCCCCC[N+]1(C)CCCC1.O=S(=O)([N-]S(=O)(=O)C(F)(F)F)C(F)(F)F` ?
// result 79.59

Cited source for all entries: the CheMixHub viscosity set
